System: Raw264.7 cells
Conditions: mouse, 5 days, 20 μM
Please respond with reported Primary QIM CellNb for every item in the list.
Answers are plain numbers.

NNC(=O)c1ccc(COc2ccccc2Cl)o1 [IPK 000 123 03]	12.0
O=C(CS)Nc1ccccc1Cl [IPK 000 108 27]	19.0
COc1cc(/C=N/NC(=O)c2ccncc2)ccc1O [IPK 000 042 97]	99.2

Please give Primary QIM CellNb, item by item, for the list that follows.
1. COc1ccc(/C=N/NC(=O)c2ccncc2)cc1OC [IPK 000 042 95]
2. O=C(N/N=C/c1ccc(O)cc1)c1ccncc1 [IPK 000 043 07]
3. CC1=C(Nc2ccc(S(=O)(=O)Nc3nc(C)cc(C)n3)cc2)Sc2ccccc2N1 [IPK 000 112 67]
4. O=[N+]([O-])c1ccc(O)c(C2NN=C(c3ccccc3)S2)c1 (centres unmarked) [IPK 000 114 01]
5. COc1cc(CN(C)NC(=O)c2ccccn2)ccc1OC(=O)c1cccs1 [IPK 000 058 20]
6. Nc1nonc1NC(=O)CSc1cccc2ccccc12 [IPK 000 106 30]
7. O=C(N/N=C/c1cc2c(cc1[N+](=O)[O-])OCO2)c1ccncc1 [IPK 000 058 30]

A:
1. 106.0
2. 102.5
3. 27.6
4. 7.3
5. 66.6
6. 28.5
7. 98.3

For every record below, what is its Primary QIM CellNb?
1. NNC(=O)c1ccc(COc2cc(Cl)ccc2Cl)o1 [IPK 000 123 02]
2. CCOC(=O)/C=C/C(=O)NNC(=O)c1cccs1 [IPK 000 109 99]
3. Cc1cccc(/C=N/NC(=O)c2ccncc2)c1 [IPK 000 043 26]
4. O=[N+]([O-])c1ccc(O)c(/C=N/c2ccccc2O)c1 [IPK 000 044 20]
5. Cc1sc(/N=C/c2ccc([N+](=O)[O-])s2)c(C(N)=O)c1C [IPK 000 110 17]
6. NNC(=O)c1ccc(COc2ccccc2Br)o1 [IPK 000 124 64]
7. CCCCc1ccc(C(=O)Nc2ccc(Br)cn2)cc1 [IPK 000 105 47]
8. Cc1ccc(C(=O)NC2CCCCCC2)cc1[N+](=O)[O-] [IPK 000 047 06]

A:
1: 45.3; 2: 20.3; 3: 102.2; 4: 6.3; 5: 12.9; 6: 54.7; 7: 68.1; 8: 17.6

For every item below, please supply its Primary QIM CellNb.
1. O=C(N/N=C/c1ccc(F)cc1)c1ccncc1 [IPK 000 041 52]
2. O=C(N/N=C\c1cc2c(s1)CCCCC2)c1ccncc1 [IPK 000 102 07]

A:
[103.2, 99.5]

----------
Test system: M. tuberculosis H37Rv-GFP
Experiment: microbe, parasite or virus in culture
Type: cell-based, Mycobacterium tuberculosis
Conditions: Mycobacterium tuberculosis, H37RV, Macrophage, read-out: QIM Confirm % Inhibition 0.2 uM
PROPERTY: inhibition at 0.2 µM (%)
Answers are plain numbers, in %.

O=C(NCCOCc1ccccc1)c1cc([N+](=O)[O-])cc([N+](=O)[O-])c1	14.2
N#CC(C#N)=NNc1ccc(I)cc1	45.7
O=C(N/N=C/c1ccco1)c1ccncc1	84.1
C/C(=N\NC(N)=S)c1ccc(Cl)cc1	54.5
COc1ccccc1OCCNC(=O)c1cc([N+](=O)[O-])cc([N+](=O)[O-])c1	-2.7

// batch mode: one inhibition at 0.2 µM value per listed entry
1. CCOC(=O)c1c(CSc2ccccc2)n(Cc2ccccc2)c2ccc(O)c(CN(C)C)c12
2. COc1cccc(OCCNC(=O)c2cc([N+](=O)[O-])cc([N+](=O)[O-])c2)c1
3. COc1ccc(OCCNC(=O)c2cc([N+](=O)[O-])cc([N+](=O)[O-])c2)cc1

A:
1: -2.2; 2: -12.6; 3: 64.5
